target: T1, HIDE1_HH-1 (Human ECD + human IgG1 Fc mutated C220S at hinge), without SP (human); assay: SPR (ProteOn), Fab PPE over captured HIDE1-HH-1, 1:1 fit
T1 construct: Batch #280 in the Serotec and phage display work; also called HIDE1 hECD-hIg; HIDE1 (H:H) recombinant Fc fusion protein
T1 sequence (chain, as listed by the source C220S C220S limits assumed): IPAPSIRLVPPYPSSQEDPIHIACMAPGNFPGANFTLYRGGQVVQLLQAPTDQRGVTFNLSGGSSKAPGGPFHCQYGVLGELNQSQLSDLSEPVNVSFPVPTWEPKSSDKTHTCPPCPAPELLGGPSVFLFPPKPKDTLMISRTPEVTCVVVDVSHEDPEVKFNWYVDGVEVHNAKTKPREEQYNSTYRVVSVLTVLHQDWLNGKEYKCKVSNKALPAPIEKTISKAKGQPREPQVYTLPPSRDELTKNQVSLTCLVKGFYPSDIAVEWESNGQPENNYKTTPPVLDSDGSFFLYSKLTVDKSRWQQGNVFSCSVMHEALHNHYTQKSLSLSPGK
Value kind: Kd (nM)
The reply should be a number in nM, with the unit left off.

{"Binder": "CPA.12.011 Fab (B03 S400-01.E01) (Fab, V domains shown, XOMA031 library Fab in periplasmic extract) VH: EVQLVESGGGLVQPGGTLRLSCVVSGFTFSSYAMSWVRQAPGKGLEWVSGISGSGGSTYISSGRTYRSTYYADSVKGRFTIARDNSENTLFLQLNSLRAEDTAIYYCAKVNSGEYAHTFDYWGQGTLVTVSS VL: DIQMTQSPSSLSASVGDRVTITCRASQGISNYLVWYQQKPGKAPKSLIYAASSLQSGVPSRFSGSGSGTDFTLTISSLQPEDFATYYCQQYNYYPITFGQGTRLEIKR", "Measurement units": "nM", "Result": 0.64}

Now take the following binder into account.
Exercise: Given CPA.12.009 Fab (A10 S398-02.A04) (Fab, V domains shown, XOMA031 library Fab in periplasmic extract) VH: QMQLVQSGAEVKKPGASVKVSCKASGYTFTTHAFSWVRQAPGLGLEWMGWISTYNGNTKYEQKFQGRVTLTTDSSTNTAYMELRSLRSDDTAVYYCVRDSRAFDVWGQGTMVTVSS VL: DIQLTQSPSFLSASVGDRVTITCRASQGINSYLAWYQQKPGAAPKLLIYAASTLQSGVPSRFSGSGSGTEFTLTISSLQPEDFATYYCQQLNTYPLIFGQGTRLEIKR , state its recorded Kd.
Solution: 1
